Listed here: items and their measured bioavailability.
Test: Oral bioavailability in Sprague-Dawley rat at 3 mg/kg, po and 1 mg/kg, iv
Format: ADME, organism-based
Details: in vivo
Give a bare numeral; the unit % is implied.

CC(=O)Nc1cccc(N2CCN(CCCCNS(=O)(=O)CC(C)C)CC2)c1
50
CC(=O)Nc1cccc(N2CCN(CCCCNS(=O)(=O)c3ccc(C)cc3)CC2)c1
15
COc1ccccc1N1CCN(CCCCNS(=O)(=O)c2ccc(C)cc2)CC1
2

Now for a further molecule.
Req: Suppose we examine the molecule CC(=O)Nc1cccc(N2CCN(CCCCNS(=O)(=O)CC3CCCCC3)CC2)c1 ; what bioavailability value has been reported?
Resp: 11

* * *

Listed here: items and their measured Ki.
Biological target: Adrenergic receptor alpha-1 (Rattus norvegicus, UniProt P15823+P23944+P43140)
Experiment: Displacement of [3H]prazosin from adrenergic alpha-1 receptor in rat cerebral cortex cells
Type: cell-based
Give a bare numeral; the unit nM is implied.

Req: Suppose we examine the compound O=C1c2ccccc2S(=O)(=O)N1CCCCN1CCN(c2ncccn2)CC1 ; what Ki value has been reported?
Resp: 229

Req: Suppose we examine the compound COc1ccccc1N1CCN(CCCCNS(=O)(=O)c2ccc(C)cc2)CC1 ; what Ki value has been reported?
Resp: 6

Req: Suppose we examine the compound O=C1CCC(=O)N1C[C@H]1CC[C@H]2CN(c3ncccn3)CCN2C1 [SUNEPITRON] ; what Ki value has been reported?
Resp: 35

* * *

Assay: Binding affinity to bradykinin receptor by radioligand binding assay
pKi: −log10 of the molar value.
READOUT: pKi

Req: Suppose we examine the compound CC(=O)Nc1cccc(N2CCN(CCCCNS(=O)(=O)CC3CCCCC3)CC2)c1 [NALUZOTAN] ; what pKi value has been reported?
Resp: < 5.70

* * *

Molecular target: 5-hydroxytryptamine receptor 1A (Homo sapiens, UniProt P08908)
Experiment: Displacement of [3H]8-OH-DPAT from human 5HT1A receptor in HEK293 cells
READOUT: log10 Ki (log10 of the value in nM)
Annotation: log10 of Ki, nM basis.

CC(=O)Nc1cccc(N2CCN(CCCCNS(=O)(=O)CC3CCCCC3)CC2)c1
0.71
O=C1CCC(=O)N1C[C@H]1CC[C@H]2CN(c3ncccn3)CCN2C1 [SUNEPITRON]
1.96
COc1ccccc1N1CCN(CCCCNS(=O)(=O)c2ccc(C)cc2)CC1
0.00
O=C1c2ccccc2S(=O)(=O)N1CCCCN1CCN(c2ncccn2)CC1
0.78
Cc1ccc(S(=O)(=O)NCCCCN2CCN(c3cccc(NS(=O)(=O)C(C)C)c3)CC2)cc1
1.67
CC(=O)Nc1cccc(N2CCN(CCCCNS(=O)(=O)CC(C)C)CC2)c1
0.96
Cc1ccc(S(=O)(=O)NCCCCN2CCN(c3cccc(NC(=O)C4CC4)c3)CC2)cc1
1.34
CC(=O)Nc1cccc(N2CCN(CCCCN(C)S(=O)(=O)CC(C)C)CC2)c1
0.99

Req: Give the reported log10 Ki for Cc1ccc(S(=O)(=O)NCCCCN2CCN(c3cccc(NC(=O)C(C)C)c3)CC2)cc1 (system: 5-hydroxytryptamine receptor 1A (Homo sapiens, UniProt P08908)).
Resp: 1.89

Req: Give the reported log10 Ki for CCC(=O)Nc1cccc(N2CCN(CCCCNS(=O)(=O)c3ccc(C)cc3)CC2)c1 (system: 5-hydroxytryptamine receptor 1A (Homo sapiens, UniProt P08908)).
Resp: 2.63

* * *

Biological target: 5-hydroxytryptamine receptor 6 (Homo sapiens)
Sequence (P50406 whole entry): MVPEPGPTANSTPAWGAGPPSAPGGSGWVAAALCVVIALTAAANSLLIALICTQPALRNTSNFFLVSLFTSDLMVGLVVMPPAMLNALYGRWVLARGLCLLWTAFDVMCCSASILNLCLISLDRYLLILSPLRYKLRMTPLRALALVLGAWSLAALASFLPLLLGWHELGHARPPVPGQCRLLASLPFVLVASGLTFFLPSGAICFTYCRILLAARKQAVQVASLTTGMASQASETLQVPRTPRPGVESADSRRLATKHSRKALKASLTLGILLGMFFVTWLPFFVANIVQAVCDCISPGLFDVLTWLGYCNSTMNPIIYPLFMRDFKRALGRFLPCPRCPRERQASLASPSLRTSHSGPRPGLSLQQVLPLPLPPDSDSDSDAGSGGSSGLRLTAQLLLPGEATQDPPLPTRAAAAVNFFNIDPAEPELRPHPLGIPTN
READOUT: Ki

Req: Suppose we examine the compound CC(=O)Nc1cccc(N2CCN(CCCCNS(=O)(=O)CC3CCCCC3)CC2)c1 ; what Ki value has been reported?
Resp: > 5 µM

* * *

Test: Binding affinity to vasopressin receptor by radioligand binding assay
READOUT: Ki

Req: Suppose we examine the molecule CC(=O)Nc1cccc(N2CCN(CCCCNS(=O)(=O)CC3CCCCC3)CC2)c1 ; what Ki value has been reported?
Resp: > 2 µM

* * *

Experiment: Toxicity in po dosed Sprague-Dawley rat
Type: organism-based
Settings: in vivo
READOUT: LD50 (mg/kg)
Give a bare numeral; the unit mg/kg is implied.

Req: Suppose we examine the molecule O=C1CC2(CCCC2)CC(=O)N1CCCCN1CCN(c2ncccn2)CC1 [BUSPIRONE] ; what LD50 value has been reported?
Resp: 196

* * *

Target chain: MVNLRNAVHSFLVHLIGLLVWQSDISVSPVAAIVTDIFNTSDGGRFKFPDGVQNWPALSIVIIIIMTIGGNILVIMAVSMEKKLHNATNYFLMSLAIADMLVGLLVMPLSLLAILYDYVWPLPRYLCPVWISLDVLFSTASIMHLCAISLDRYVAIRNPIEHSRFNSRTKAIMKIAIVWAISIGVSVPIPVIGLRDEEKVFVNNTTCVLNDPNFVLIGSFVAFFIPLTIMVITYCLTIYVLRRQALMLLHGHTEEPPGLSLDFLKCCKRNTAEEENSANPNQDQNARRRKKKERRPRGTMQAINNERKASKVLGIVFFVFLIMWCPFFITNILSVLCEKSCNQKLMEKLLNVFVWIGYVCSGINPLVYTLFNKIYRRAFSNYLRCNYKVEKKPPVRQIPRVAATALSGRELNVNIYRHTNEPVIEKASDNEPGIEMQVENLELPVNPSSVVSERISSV
READOUT: Ki

Req: Suppose we examine the compound CC(=O)Nc1cccc(N2CCN(CCCCNS(=O)(=O)CC3CCCCC3)CC2)c1 [NALUZOTAN] ; what Ki value has been reported?
Resp: > 5 µM

* * *

Assay: Ratio of drug level in brain against serum in Sprague-Dawley rat at 3 mg/kg, po or 1 mg/kg, iv after 1 hr
Format: ADME, organism-based
Conditions: read-out: BBR
READOUT: Kp at 1 h
Enter a number only.

Req: Suppose we examine the compound CC(=O)Nc1cccc(N2CCN(CCCCNS(=O)(=O)CC3CCCCC3)CC2)c1 ; what Kp at 1 h value has been reported?
Resp: 0.5

* * *

Biological target: 5-hydroxytryptamine receptor 1A (Homo sapiens, UniProt P08908)
Sequence (P08908 whole entry): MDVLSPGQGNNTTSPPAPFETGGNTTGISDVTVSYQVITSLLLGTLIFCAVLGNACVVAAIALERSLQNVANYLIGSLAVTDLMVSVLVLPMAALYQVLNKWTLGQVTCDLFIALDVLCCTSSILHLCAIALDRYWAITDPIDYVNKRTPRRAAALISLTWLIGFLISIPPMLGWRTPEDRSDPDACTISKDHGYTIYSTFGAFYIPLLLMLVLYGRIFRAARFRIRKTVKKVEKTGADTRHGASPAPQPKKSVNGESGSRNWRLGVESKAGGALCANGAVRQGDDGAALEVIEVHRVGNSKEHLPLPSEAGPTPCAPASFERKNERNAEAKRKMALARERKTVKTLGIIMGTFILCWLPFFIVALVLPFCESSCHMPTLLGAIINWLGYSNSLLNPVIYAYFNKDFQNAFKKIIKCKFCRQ
Test: Activity against 5HT1A receptor by Gi-[35S]GTP-gamma-S binding assay
Listed here: items and their measured EC50.
Give a bare numeral; the unit nM is implied.

Check out these entries, answers already filled in.
CC(=O)Nc1cccc(N2CCN(CCCCNS(=O)(=O)CC3CCCCC3)CC2)c1 [NALUZOTAN]
20
CC(=O)Nc1cccc(N2CCN(CCCCNS(=O)(=O)CC(C)C)CC2)c1
60
CC(=O)Nc1cccc(N2CCN(CCCCN(C)S(=O)(=O)CC3CCCCC3)CC2)c1
3.6
COc1ccccc1N1CCN(CCCCNS(=O)(=O)c2ccc(C)cc2)CC1
21

Now for a further molecule.
Req: Suppose we examine the molecule CC(=O)Nc1cccc(N2CCN(CCCCN(C)S(=O)(=O)CC(C)C)CC2)c1 ; what EC50 value has been reported?
Resp: 32

* * *

Biological target: UniProt:P14416
Sequence (P14416 whole entry): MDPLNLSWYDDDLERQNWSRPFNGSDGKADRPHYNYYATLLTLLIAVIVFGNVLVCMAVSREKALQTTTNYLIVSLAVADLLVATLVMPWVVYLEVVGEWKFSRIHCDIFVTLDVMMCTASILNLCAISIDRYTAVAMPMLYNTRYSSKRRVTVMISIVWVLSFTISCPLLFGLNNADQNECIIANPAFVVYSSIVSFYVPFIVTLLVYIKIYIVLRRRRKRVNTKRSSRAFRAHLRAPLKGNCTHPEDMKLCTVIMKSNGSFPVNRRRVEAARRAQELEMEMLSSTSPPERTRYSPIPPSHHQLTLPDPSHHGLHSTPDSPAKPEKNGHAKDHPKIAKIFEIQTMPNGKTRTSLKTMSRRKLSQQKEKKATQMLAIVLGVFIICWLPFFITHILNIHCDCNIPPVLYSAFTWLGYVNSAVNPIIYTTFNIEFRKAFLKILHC
Assay: Binding affinity to D2 receptor by radioligand binding assay
READOUT: Ki (nM)
Give a bare numeral; the unit nM is implied.

CC1(C)CC(=O)N(CCCCN2CCN(c3ncccn3)CC2)C(=O)C1 [GEPIRONE]
58

Now for a further molecule.
Req: Suppose we examine the molecule O=C1c2ccccc2S(=O)(=O)N1CCCCN1CCN(c2ncccn2)CC1 ; what Ki value has been reported?
Resp: 110

* * *

Biological target: Translocator protein (Homo sapiens, UniProt P30536)
Sequence (P30536 whole entry): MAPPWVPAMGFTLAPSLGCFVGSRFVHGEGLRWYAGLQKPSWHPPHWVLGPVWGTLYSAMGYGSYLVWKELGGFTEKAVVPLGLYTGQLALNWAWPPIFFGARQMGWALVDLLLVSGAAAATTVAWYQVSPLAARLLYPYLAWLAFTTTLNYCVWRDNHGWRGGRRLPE
pKi: −log10 of the molar value.
READOUT: pKi

Req: Give the reported pKi for CC(=O)Nc1cccc(N2CCN(CCCCNS(=O)(=O)CC3CCCCC3)CC2)c1 [NALUZOTAN] (system: Translocator protein (Homo sapiens, UniProt P30536)).
Resp: < 5.70

* * *

Target: Alpha-2A adrenergic receptor (Rattus norvegicus, UniProt P22909)
Sequence (P22909 whole entry): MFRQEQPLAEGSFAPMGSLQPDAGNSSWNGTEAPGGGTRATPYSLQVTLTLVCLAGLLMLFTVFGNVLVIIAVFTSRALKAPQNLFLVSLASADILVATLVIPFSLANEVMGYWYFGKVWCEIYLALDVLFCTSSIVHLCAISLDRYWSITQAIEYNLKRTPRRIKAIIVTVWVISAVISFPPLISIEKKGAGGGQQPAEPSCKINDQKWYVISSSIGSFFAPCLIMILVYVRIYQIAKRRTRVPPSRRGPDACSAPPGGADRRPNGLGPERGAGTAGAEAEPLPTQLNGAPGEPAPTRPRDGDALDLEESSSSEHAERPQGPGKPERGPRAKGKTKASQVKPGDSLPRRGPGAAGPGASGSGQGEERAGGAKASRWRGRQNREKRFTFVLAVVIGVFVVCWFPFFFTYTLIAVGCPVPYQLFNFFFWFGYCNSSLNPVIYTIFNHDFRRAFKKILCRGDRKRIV
Assay: Displacement of [3H]RX 821002 from Adrenergic alpha-2a receptor in rat cerebral cortex cells
READOUT: pKi
Lab note — pKi values are minus log10 of concentrations in M.

Req: Give the reported pKi for COc1ccccc1N1CCN(CCCCNS(=O)(=O)c2ccc(C)cc2)CC1 (system: Alpha-2A adrenergic receptor (Rattus norvegicus, UniProt P22909)).
Resp: 7.92
